This collection of values is drawn from patent US5977169A.

- tested_on: HIV-1 protease (Human immunodeficiency virus type 1 group M subtype B)
- Construct: The protease (or proteinase) enzyme, consisting of only 99 amino acids
- experiment_description: In vitro HIV protease inhibitory assay (fluorescently labeled substrate, avidin-polystyrene particles)
- Format: biochemical
- condition_parameters: HIV-1 dose 3.3 μM
result_type: inhibition at 3.3 µM (%)

// known answers, use as guide
CC(C)C(C1=C(O)C(CCCc2ccccc2)OC1=O)c1ccccc1 (stereo not drawn) = 56.6
CCCC1(CCC)OC(=O)C(C(CC)c2cccc(NS(=O)(=O)c3ccccc3)c2)=C1O (stereo not drawn) = 104
C=CCC1(CCCc2ccccc2)OC(=O)C(C(c2ccccc2)C2CC2)=C1O (stereo not drawn) = 114

A = Cn1cnc(S(=O)(=O)Nc2cccc(C(C3=C(O)C(Cc4ccccc4)(Cc4ccccc4)OC3=O)C(C)(C)C)c2)c1 (stereo not drawn)
B = O=C1OC(CCCc2ccccc2)C(O)=C1C(Cc1ccccc1)c1ccccc1 (stereo not drawn)
Challenge: Of the pair A and B , name the member with the lesser recorded inhibition at 3.3 µM. Please indicate the selected item by its label.
Response given: B
(B: 15.5%, A: 102%)

----------
- tested_on: HIV-1 protease (Human immunodeficiency virus type 1 group M subtype B, UniProt P04585)
- Construct: The protease (or proteinase) enzyme, consisting of only 99 amino acids
- experiment_description: In vitro HIV protease inhibitory assay (fluorescently labeled substrate, avidin-polystyrene particles)
- Type: biochemical
- condition_parameters: HIV-1 dose 3.3 μM
result_type: inhibition at 3.3 µM (%)

CCCC1(CCC)OC(=O)C(C(c2cccc(NS(=O)(=O)c3ccc(F)cc3)c2)C2CC2)=C1O (stereo not shown) [IX-16] = 108
CCCCC(CCc1ccccc1)C1OC(=O)C(C(c2ccccc2)C2CC2)=C1O (stereo not shown) [GX-2] = 70.9
CCCC1(CCC)OC(=O)C(C(CC(C)C)c2cccc(NS(=O)(=O)c3ccc(C#N)cc3)c2)=C1O (stereo not shown) [IX-21] = 95.7
CCCC1(CCC)OC(=O)C(C(c2cccc(NS(=O)(=O)c3ccc(C#N)cc3)c2)C(C)C)=C1O (stereo not shown) [IX-23] = 109
Cn1cnc(S(=O)(=O)Nc2cccc(C(C3=C(O)C(Cc4ccccc4)(Cc4ccccc4)OC3=O)C3CC3)c2)c1 (stereo not shown) [IX-45] = 91.9
CCC(C1=C(O)C(CC)(Cc2ccccc2)OC1=O)c1ccccc1 (stereo not shown) [IX-10] = 97.3
CCC1CCCCC12OC(=O)C(C(c1ccccc1)C1CC1)=C2O (single isomer, unassigned) [IX-33] = 99
CCCC1(CCC)OC(=O)C(C(c2cccc(N)c2)C2CC2)=C1O (stereo not shown) [IX-11] = 108
CCC/C=C1\OC(=O)C(C(c2ccccc2)C2CC2)=C1O (stereo not shown) [JX-4] = 85.9
O=C1OC(Cc2ccccc2)(Cc2ccccc2)C(O)=C1C(c1cccc(NS(=O)(=O)c2ccc(F)cc2)c1)C1CC1 (stereo not shown) [IX-44] = 90.3
CCCC1(CCC)OC(=O)C(C(c2cccc(NS(=O)(=O)c3nc4ccccc4[nH]3)c2)C2CC2)=C1O (stereo not shown) [IX-51] = 101
CCCC1(CCC)OC(=O)C(C(c2cccc(NS(=O)(=O)c3nnnn3-c3ccccc3)c2)C2CC2)=C1O (stereo not shown) [IX-50] = 108
O=C1OC(C(CCc2ccccc2)c2ccccc2)C(O)=C1C(c1ccccc1)C1CC1 (stereo not shown) [GX-4] = 93.6
